# Test system: IGROV-1
# test.method.notes: NCI tumour cell line growth inhibition, 48 h
The source made the active and inactive calls. Cut-off read from the data, not from the text of the source: active = GI50 up to about 1.1 µM and inactive = higher.
assay.metric: GI50

Solved cases (5 shown):
molecule	assay.metric	result
COc1ccc(/C=C2/NC(=S)N=C2Cl)cc1	GI50	> 100 µM (inactive)
CCOP(=O)(OCC)C(Cc1ccc(OC)c(OC)c1)N=C(c1ccccc1)c1ccccc1 (stereo not drawn)	GI50	45.2 µM (inactive)
CCCCCC/C=C\CCCCCCCCCc1cccc(O)c1C(=O)O	GI50	> 100 µM (inactive)
CC(=O)NC(CCCNC(=O)OCc1ccccc1)C(=O)O (stereo not drawn)	GI50	> 100 µM (inactive)
CCCCCNC(=O)c1c(O)[nH]c(=S)[nH]c1=O	GI50	> 100 µM (inactive)

For the molecule CCOC(=O)c1ccc(NCc2ccc3oc(=O)c(-c4ccccc4)nc3c2)cc1 , what GI50 is on record?
67 µM (inactive)

GI50 lookup needed for N#CC1=C(N2CCOCC2)CCC1 , thanks.
> 100 µM (inactive)

Which GI50 is reported for this molecule? N#Cc1nc(Sc2cnsn2)c(Sc2cnsn2)nc1C#N
18.5 µM (inactive)

Please give the measured GI50 for this molecule: COc1ccc(-c2c3c(n(C4OC(COC(C)=O)C(OC(C)=O)C(OC(C)=O)C4OC(C)=O)c(=S)c2C#N)CCC3)cc1 (stereo not drawn)
> 100 µM (inactive)

What value of measured GI50 is listed for S=C1c2ccccc2N=C(NC2CCCC2)C2CSCN12 (stereo not drawn) ?
> 100 µM (inactive)

Which measured GI50 value corresponds to CC1OC(NCCNCCNC2OC(C)C(O)C(O)C2O)C(O)C(O)C1O (stereo not drawn) ?
> 100 µM (inactive)

Returns the measured GI50 for the input molecule. Input: CC[C@H](C)C(=O)O[C@H]1C[C@@H](C)C=C2C=C[C@H](C)[C@H](CC[C@@H]3C[C@@H](O)CC(=O)O3)[C@H]21
5.96 µM (inactive)

Returns the measured GI50 for the input molecule. Input: O=C1CCN(CCC(F)(F)C(F)(F)C(F)(F)C(F)(F)C(F)(F)C(F)(F)F)C(=S)N1CCC(F)(F)C(F)(F)C(F)(F)C(F)(F)C(F)(F)C(F)(F)F
> 100 µM (inactive)

====

# System: IGROV-1
# test.method.notes: NCI tumour cell line growth inhibition, 48 h
Activity calls are given as the source filed them. No stated cut-off is given here; in the data, active = GI50 up to about 1.1 µM and inactive = higher.
Overview of recorded GI50 for various compounds

Below: 5 compounds and their reported GI50.
compound	GI50
Nc1ncn(C2OC(COP(=O)(O)O)C(O)C2O)c(=O)n1 (centres undefined)	> 100 µM (inactive)
CC(C)(C)OC(=O)N/N=C(/N)Cc1ccccc1	> 100 µM (inactive)
COc1cc[n+](C)cc1	> 100 µM (inactive)
COC1=CC2C(c3cc4ccccc4n3S(=O)(=O)c3ccccc3)CC1CN2C(=O)OCc1ccccc1 (centres undefined)	33.7 µM (inactive)
CCC12CCCN(Cc3ccccc3)C1c1c(n(C)c3ccccc13)C(C(=O)OC)C2 (centres undefined)	146 µM (inactive)

Entry under review: COc1cccc(-c2cc(O)c3cc(N4CCOCC4)ccc3n2)c1 . Reported GI50?
0.0575 µM (active)

What value of measured GI50 is listed for Nc1c(C(=O)NC23CC4CC(CC(C4)C2)C3)[n+]([O-])c2ccccc2[n+]1[O-] ?
> 100 µM (inactive)

Which GI50 is listed for Cc1ccc(S(=O)(=O)NC(=O)C2(Br)S(=O)(=O)OCCOS2(=O)=O)cc1 ?
> 100 µM (inactive)

// lookup GI50 for C[C@H]1C(=O)O[C@@H]2CCN3CC=C(COC(=O)[C@](C)(O)[C@@]1(C)O)[C@H]23
> 100 µM (inactive)

Entry COc1cccc(-c2cc(=O)c3cc(C)c(C)c(C(=O)O)c3o2)c1 has what GI50?
> 100 µM (inactive)

Give its GI50 value. Item: Clc1cccc(C2ON=C(c3ccccc3)N2C23CC4CC(CC(C4)C2)C3)c1Cl (centres undefined)
> 10 µM (inactive)

Can you share its GI50? I mean this compound: O=C1c2cccnc2S(=O)(=O)N1c1ccc([N+](=O)[O-])cc1
> 100 µM (inactive)

Dear colleague, I am looking for the recorded GI50 of the following compound: O=C1Nc2ccccc2/C1=C\c1c(Cl)nc2n1CCS2
32.7 µM (inactive)

GI50 lookup needed for COC12OC3CC4(C)C(=CC3OC(OC(C)C1O)C2O)CCC1C4CCC2(C)C(c3ccc(=O)oc3)CCC12O (centres undefined) , thanks.
0.00171 µM (active)
